Measured composite z-score, listed per entry.
- Experimental target: Pro-neuregulin-1, membrane-bound isoform (Homo sapiens) (UniProt Q02297)
- Sequence (Q02297 whole entry, looked up, canonical isoform): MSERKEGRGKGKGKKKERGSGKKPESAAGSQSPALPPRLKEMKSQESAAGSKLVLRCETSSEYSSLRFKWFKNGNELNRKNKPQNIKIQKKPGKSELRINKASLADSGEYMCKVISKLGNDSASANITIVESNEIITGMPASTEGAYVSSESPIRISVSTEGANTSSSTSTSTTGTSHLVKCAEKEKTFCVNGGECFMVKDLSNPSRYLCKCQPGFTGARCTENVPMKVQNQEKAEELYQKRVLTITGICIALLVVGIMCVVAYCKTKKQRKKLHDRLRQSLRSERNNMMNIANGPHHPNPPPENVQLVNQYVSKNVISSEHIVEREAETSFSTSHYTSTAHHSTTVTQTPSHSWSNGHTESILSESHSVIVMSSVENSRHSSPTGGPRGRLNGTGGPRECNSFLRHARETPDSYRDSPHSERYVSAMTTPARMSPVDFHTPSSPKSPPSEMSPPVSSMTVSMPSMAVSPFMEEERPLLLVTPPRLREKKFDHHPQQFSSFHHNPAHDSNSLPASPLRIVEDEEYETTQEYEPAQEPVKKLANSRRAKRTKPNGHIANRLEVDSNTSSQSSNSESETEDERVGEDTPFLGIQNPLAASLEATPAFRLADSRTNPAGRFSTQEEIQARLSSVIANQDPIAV
- Protocol details: NRG1 binders on small-molecule microarrays, primary screen, psychiatric disease protein project, biochemical, small-molecule microarray, fluorescence 635/667 (AID 1075);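 also: score combines 667 nm spot fluorescence with signal to noise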
- Recorded conditions: NRG1 binding, 635 nm fluorescence, higher = more signal
API note: the answer field is a bare number with no unit suffix.

Past entries and their recorded results:
INSERT INTO assay_data (compound, experimental_target, reported_measurement) VALUES
  ('Cc1ccc(S[C@]2(C(=O)NC3CC3)CC(=O)N(C3Cc4ccccc4C3)[C@@H]2c2ccc(CO)cc2)cc1', 'Pro-neuregulin-1, membrane-bound isoform (Homo sapiens) (UniProt Q02297)', 1.08),
  ('COc1cc2c(cc1OC)CN(C(=O)[C@@H]1[C@H]3C(=O)O[C@H](c4ccccc4)[C@H](c4ccccc4)N3[C@H](c3ccc(O)cc3)[C@@]13C(=O)Nc1ccc(C#CC4(O)CCCCCC4)cc13)CC2', 'Pro-neuregulin-1, membrane-bound isoform (Homo sapiens) (UniProt Q02297)', 1.73);

Which composite z-score reading was recorded for the compound "COc1ccc([Si](C)(C)[C@H]2[C@H](CCO)O[C@@]3(C(=O)N(C)c4c(Br)cc(C)cc43)[C@@H]2C)cc1" ?
0.679

For "C=C(CCCC)C(=O)CC[C@H](OC(C)=O)c1cccc(OCCO)c1" then?
-0.331

###

- Protocol details: modulators of S6 phosphorylation in cells, primary screen, cell-based, A549, cytoblot, luminescence, serum-stimulated (AID 1158);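 also: serum-stimulated A549 lung adenocarcinoma cells; signal is phosphorylated S6 detected by cytoblot immunostaining with HRP secondary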
- Recorded conditions: A549 phospho-S6 cytoblot, 5 h, higher = more signal
Recorded endpoint: z-score
Lab note: record just the number, no unit beside it.

INSERT INTO results (compound, recorded_endpoint, reported_measurement) VALUES
  ('CCOC(=O)[C@H]1C/C=C/C[C@H](C(=O)OCC)C(=O)O[C@H]2[C@@H](OC)O[C@H](CO)[C@@H](OC(=O)Nc3cccc(F)c3)[C@@H]2OC1=O', 'z-score', -0.0707),
  ('COc1cc2c(cc1OC)CN(C(=O)[C@H]1[C@@H]3C(=O)O[C@@H](c4ccccc4)[C@@H](c4ccccc4)N3[C@@H](c3ccc(O)cc3)[C@]13C(=O)Nc1ccc(C#CCNC(N)=O)cc13)CC2', 'z-score', 0.152),
  ('C=CCNC(=O)[C@H]1[C@@H]2C(=O)O[C@@H](c3ccccc3)[C@@H](c3ccccc3)N2[C@@H](c2ccccc2OCCO)[C@]12C(=O)Nc1ccc(C#CC3=CCCCC3)cc12', 'z-score', 0.142);

Dear colleague, I am looking for the recorded z-score of the following compound: "COC(=O)C(CC#Cc1ccc2c(c1)[C@]1(C(=O)N2)[C@H](C(=O)O)[C@H]2C(=O)O[C@H](c3ccccc3)[C@H](c3ccccc3)N2[C@@H]1c1ccc(O)cc1)C(=O)OC"
0.148

What would you report for "COCCOC(=O)N1C(=O)[C@@]2(c3cc(C#CCCO)ccc31)[C@H](c1ccc(OCCO)cc1)N1[C@H](c3ccccc3)[C@H](c3ccccc3)OC(=O)[C@H]1[C@@H]2C(=O)N1CCN(c2ncccn2)CC1" ?
-0.113

Cool, now "NCCCCCNC(=O)[C@@H]1C[C@@H]2C(=O)NCC(=O)N2[C@@H]1c1ccc(O)cc1"
-0.47

What do you have for "O=C1c2ccccc2[C@](Cc2ccccc2I)(C(=O)NC2CC2)[C@H](c2ccc(CO)cc2)N1C1CCCCC1" ?
-0.471

// same read-out, input: "O=C1O[C@@H](c2ccccc2)[C@@H](c2ccccc2)N2[C@@H](c3ccc(OCCO)cc3)[C@]3(C(=O)Nc4ccccc43)[C@@H](C(=O)NC[C@H](O)c3ccccc3)[C@H]12"
-0.29

Further, for "COCCOC(=O)N1C(=O)[C@@]2(c3cc(C#CC4=CCCCC4)ccc31)[C@H](C(=O)N1CCc3cc(OC)c(OC)cc3C1)[C@H]1C(=O)O[C@H](c3ccccc3)[C@H](c3ccccc3)N1[C@@H]2c1ccc(OCCO)cc1" ?
0.261

Next record, please: CN1C(=O)C2C=CC(C(O)c3cc(C(F)(F)F)cc(C(F)(F)F)c3)N(N3CCCCC3)C2C1=O (configuration not stated)
-1.08

Now the same for "C=CCN1C(=O)[C@@]2(O[C@@H](CCO)[C@H]([Si](C)(C)c3ccc(OC)cc3)[C@H]2C)c2cc(NC(=O)c3ccc(OC)cc3)ccc21"
0.26

Please give the result for "COC(=O)[C@@]1(Cc2ccc(F)cc2)[C@H]2c3cc(C(=O)N4CCCC4)n(Cc4ccc(C)o4)c3C[C@H]2CN1C(=O)c1ccccc1" too.
-0.118

Another compound: "COC(=O)c1c(CC[C@@H](CO)NC(=O)N[C@@H](C)Cn2cc(C3(O)CCCCC3)nn2)oc(C(C)=O)c1C(=O)OC"
0.813

Here is the next compound: "CCCC=C(CCC)[C@@H](NC(=O)Oc1ccc(F)cc1)c1ccc(C(=O)OC)cc1"
0.298

Next entry: "COc1cc2c(cc1OC)CN(C(=O)[C@@H]1[C@H]3C(=O)O[C@H](c4ccccc4)[C@H](c4ccccc4)N3[C@H](c3ccc(O)cc3)[C@@]13C(=O)Nc1ccc(C#CC4(O)CCCCCC4)cc13)CC2"
0.137

Also CCOC(=O)C1=CCC(c2ccccc2)N(S(=O)(=O)CC[Si](C)(C)C)C1 (configuration not stated) , if possible.
-0.215

Could you do the same for COc1cc2c(cc1O)C(C1CC1)N(Cc1cc3c(cc1Br)OCO3)CC2 (configuration not stated) , please?
-0.074

Repeat for the following compound: "CCCC=C(CCC)[C@@H](NS(=O)(=O)c1cccs1)c1ccc(C(=O)OC)cc1"
-1.13

###

- Protocol details: small-molecule microarray binders of probe aShh, primary screen, biochemical, biotinylated probe, 635/667 nm fluorescence (AID 1114);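 also: probe is biotin-labelled aShh protein from a stem cell growth factor screen; measures binding of labelled protein to compounds printed on the slide; score merges feature fluorescence at 667 nm with signal-to-noise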
- Recorded conditions: higher = more signal
Recorded composite z-score values for a group of compounds are listed next.
In your answer, state the number alone without any accompanying words.

Sample answers from the record:
INSERT INTO measurements (compound, reported_measurement) VALUES
  ('CC(C)C[C@@H]1NC(=O)[C@@H]2C[C@H](C(=O)NCCCCCN)[C@H](c3cccc(OCCO)c3)N2C1=O', -0.153),
  ('COCCOC(=O)N1C(=O)[C@@]2(c3cc(C#CCCO)ccc31)[C@H](c1ccc(OCCO)cc1)N1[C@H](c3ccccc3)[C@H](c3ccccc3)OC(=O)[C@H]1[C@@H]2C(=O)N1CCN(c2ncccn2)CC1', -0.0035),
  ('COc1ccc(NN2C(C(O)c3ccc([N+](=O)[O-])cc3)C=CC3C(=O)N(C4CCCCC4)C(=O)C32)cc1 (stereo not drawn)', 0.368),
  ('O=C1OCCC=C[C@H]2OC34C=CCN(CCN5CCOCC5)C(=O)[C@H]3N(CCCCCCO)C(=O)[C@@H]4C12 (stereo partly drawn)', -0.289),
  ('COCCOC(=O)N1C(=O)[C@@]2(c3cc(C#CC4=CCCCC4)ccc31)[C@H](C(=O)N1CCc3cc(OC)c(OC)cc3C1)[C@H]1C(=O)O[C@H](c3ccccc3)[C@H](c3ccccc3)N1[C@@H]2c1ccc(OCCO)cc1', -0.428),
  ('CCOC(=O)C[C@H]1[C@H](OC(=O)Cc2ccc3c(c2)OCO3)[C@@H](NC(=O)c2ccc(-c3ccccc3)cc2)c2cc(OCCCO)ccc2N1C(=O)c1ccc2ccccc2n1', -0.146),
  ('COCCOC(=O)N1C(=O)[C@@]2(c3cc(C#Cc4ccc(OC)cc4)ccc31)[C@H](C(N)=O)[C@H]1C(=O)O[C@H](c3ccccc3)[C@H](c3ccccc3)N1[C@@H]2c1ccccc1OCCO', -0.0988),
  ('CCOC(=O)[C@H]1C/C=C/C[C@H](C(=O)OCC)C(=O)O[C@H]2[C@@H](OC)O[C@H](CO)[C@@H](OC(=O)Nc3ccc(C#N)cc3)[C@@H]2OC1=O', 0.0062);

I am curious: what composite z-score value has been reported for "COCCCNC(=O)[C@@]1(Cc2ccccc2)N=C(c2ccc(OCCCO)cc2)O[C@H]1c1ccccc1" ?
-0.36

Note, next up: "C=CCNC(=O)[C@H]1[C@@H]2C(=O)O[C@@H](c3ccccc3)[C@@H](c3ccccc3)N2[C@@H](c2ccc(O)cc2)[C@]12C(=O)N(C(=O)OCCOC)c1ccc(C#CCNC(N)=O)cc12"
-0.0769

Let us now turn to "CCCCC=C[C@@H](NC(=O)Oc1cccc(C(F)(F)F)c1)c1ccccc1"
1.97

Similarly, "Cc1ccc(S[C@]2(C(=O)NC(C)C)CC(=O)N(Cc3ccccc3Cl)[C@@H]2c2ccc(CO)cc2I)cc1" ?
-0.283

Proceed to CC(C)C[C@H]1NC(=O)[C@@]23C(=O)N[C@@H](Cc4ccccc4)C2[C@H](C)[C@@]2(C)O[C@H]2C3/C=C/C/C=C\CNC(=O)[C@H](Cc2ccccc2)NC1=O (stereo partly drawn)
-0.0553
